Biological target: T1, recombinant cynomolgus NKG2D-Fc (cynomolgus; human, UniProt P61252 73-216)
T1 construct: extracellular domain; also called cynomolgus NKG2D-Fc fusion protein; not shown: human IgG1 Fc domain
T1 sequence (looked up): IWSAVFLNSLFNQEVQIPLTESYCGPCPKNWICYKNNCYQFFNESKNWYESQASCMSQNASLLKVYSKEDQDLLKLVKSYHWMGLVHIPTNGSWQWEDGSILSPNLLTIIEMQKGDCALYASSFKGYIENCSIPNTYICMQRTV
Assay: ELISA on coated NKG2D-Fc;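 also: titrated NKG2D-binding domains on plate-bound human, mouse or cynomolgus NKG2D ectodomain–human IgG1 Fc fusions, detected with HRP anti-human kappa secondary and TMB, absorbance at 450 nm corrected at 540 nm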
observation-type: binding result

Consider the reported binding result for these binders:
| binder | observation-type | result |
| --- | --- | --- |
| ADI-29447 (antibody, V domains shown, also called F47) VH: QVQLQQWGAGLLKPSETLSLTCAVYGGSFSGYYWSWIRQPPGKGLEWIGEIDHSGSTNYNPSLKSRVTISVDTSKNQFSLKLSSVTAADTAVYYCARARGPWSFDPWGQGTLVTVSS VL: DIQMTQSPSTLSASVGDRVTITCRASQSISSWLAWYQQKPGKAPKLLIYKASSLESGVPSRFSGSGSGTEFTLTISSLQPDDFATYYCQQYDTFITFGGGTKVEIK | binding result | binds |
| ADI-27749 (antibody, V domains shown, also called A49) VH: EVQLVESGGGLVKPGGSLRLSCAASGFTFSSYSMNWVRQAPGKGLEWVSSISSSSSYIYYADSVKGRFTISRDNAKNSLYLQMNSLRAEDTAVYYCARGAPMGAAAGWFDPWGQGTLVTVSS VL: DIQMTQSPSSVSASVGDRVTITCRASQGISSWLAWYQQKPGKAPKLLIYAASSLQSGVPSRFSGSGSGTDFTLTISSLQPEDFATYYCQQGVSFPRTFGGGTKVEIK | binding result | binds |
| ADI-27740 (antibody, V domains shown, also called A40) VH: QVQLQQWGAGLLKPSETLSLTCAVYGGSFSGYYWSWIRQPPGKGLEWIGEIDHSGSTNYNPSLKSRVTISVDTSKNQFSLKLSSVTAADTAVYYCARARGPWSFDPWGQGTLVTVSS VL: DIQMTQSPSTLSASVGDRVTITCRASQSIGSWLAWYQQKPGKAPKLLIYKASSLESGVPSRFSGSGSGTEFTLTISSLQPDDFATYYCQQYHSFYTFGGGTKVEIK | binding result | binds |
| ADI-29404 (antibody, V domains shown, also called F04) VH: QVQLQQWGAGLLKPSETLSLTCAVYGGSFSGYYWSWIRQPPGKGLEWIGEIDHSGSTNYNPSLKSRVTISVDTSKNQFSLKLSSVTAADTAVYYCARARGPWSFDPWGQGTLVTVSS VL: DIQMTQSPSTLSASVGDRVTITCRASQSISSWLAWYQQKPGKAPKLLIYKASSLESGVPSRFSGSGSGTEFTLTISSLQPDDFATYYCEQYDSYPTFGGGTKVEIK | binding result | binds |
| ADI-29378 (antibody, V domains shown, also called E78) VH: QVQLVQSGAEVKKPGASVKVSCKASGYTFTSYYMHWVRQAPGQGLEWMGIINPSGGSTSYAQKFQGRVTMTRDTSTSTVYMELSSLRSEDTAVYYCAREGAGFAYGMDYYYMDVWGKGTTVTVSS VL: EIVLTQSPATLSLSPGERATLSCRASQSVSSYLAWYQQKPGQAPRLLIYDASNRATGIPARFSGSGSGTDFTLTISSLEPEDFAVYYCQQSDNWPFTFGGGTKVEIK | binding result | binds |
| ADI-29426 (antibody, V domains shown) VH: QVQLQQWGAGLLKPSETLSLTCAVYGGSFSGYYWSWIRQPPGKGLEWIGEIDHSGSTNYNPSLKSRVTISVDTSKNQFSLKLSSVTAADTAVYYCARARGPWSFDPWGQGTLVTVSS VL: DIQMTQSPSTLSASVGDRVTITCRASQSIGSWLAWYQQKPGKAPKLLIYKASSLESGVPSRFSGSGSGTEFTLTISSLQPDDFATYYCQQYHSFPTFGGGTKVEIK | binding result | binds |

(Q) Entry ADI-29401 (antibody, V domains shown) VH: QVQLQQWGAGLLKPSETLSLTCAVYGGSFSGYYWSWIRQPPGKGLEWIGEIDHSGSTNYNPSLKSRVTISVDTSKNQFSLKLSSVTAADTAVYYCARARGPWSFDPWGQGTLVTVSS VL: DIQMTQSPSTLSASVGDRVTITCRASQSIGSWLAWYQQKPGKAPKLLIYKASSLESGVPSRFSGSGSGTEFTLTISSLQPDDFATYYCQQYDIYPTFGGGTKVEIK has what binding result?
(A) binds

(Q) Now try ADI-29424 (antibody, V domains shown) VH: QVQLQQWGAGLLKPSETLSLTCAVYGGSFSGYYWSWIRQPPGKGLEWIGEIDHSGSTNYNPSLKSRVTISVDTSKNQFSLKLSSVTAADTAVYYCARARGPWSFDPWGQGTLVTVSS VL: DIQMTQSPSTLSASVGDRVTITCRASQSISSWLAWYQQKPGKAPKLLIYKASSLESGVPSRFSGSGSGTEFTLTISSLQPDDFATYYCQQYDSFITFGGGTKVEIK .
(A) binds

(Q) Proceed to ADI-29429 (antibody, V domains shown) VH: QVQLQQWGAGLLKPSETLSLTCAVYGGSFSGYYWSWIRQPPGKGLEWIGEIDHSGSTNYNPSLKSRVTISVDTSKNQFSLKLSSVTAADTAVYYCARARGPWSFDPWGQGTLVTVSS VL: DIQMTQSPSTLSASVGDRVTITCRASQSIGSWLAWYQQKPGKAPKLLIYKASSLESGVPSRFSGSGSGTEFTLTISSLQPDDFATYYCQQYELYSYTFGGGTKVEIK
(A) binds

(Q) Repeat with ADI-28226 (antibody, V domains shown, also called C26) VH: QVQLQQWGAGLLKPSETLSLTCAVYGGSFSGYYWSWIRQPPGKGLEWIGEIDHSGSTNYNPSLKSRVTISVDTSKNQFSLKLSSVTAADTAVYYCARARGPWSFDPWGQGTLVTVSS VL: DIQMTQSPSTLSASVGDRVTITCRASQSISSWLAWYQQKPGKAPKLLIYKASSLESGVPSRFSGSGSGTEFTLTISSLQPDDFATYYCQQYGSFPITFGGGTKVEIK
(A) binds
